# assay.system: H9 hemagglutinin (A/Hong Kong/1073/99) (influenza A virus A/Hong Kong/1073/99 (H9))
# run.description: ELISA on coated HA, relative Kd (4-parameter fit)

| binder | limit.operator | Kd / nM |
| --- | --- | --- |
| Ab 038 (antibody, V domains shown) VH: QVQLLETGGGLVKPGQSLKLSCAASGFTFTSYAMHWVRQPPGKGLEWVAVVSYDGNYKYYADSVQGRFTISRDNSKNTLYLQMNSLRAEDTAVYYCAKDSRLRSLLYFEWLSQGYFNPWGQGTTLTVSS VL: DIQMTQSPSSLSASVGDRVTITCRSSQSITFNYKNYLGWYQQKPGKAPKLLIYWGSYLESGVPSRFSGSGSGTDFTLTISSLQPEDFATYYCQQHYRTPPSFGQGTKVEIK | < | 0.025 |
| Ab 004 (antibody, V domains shown) VH: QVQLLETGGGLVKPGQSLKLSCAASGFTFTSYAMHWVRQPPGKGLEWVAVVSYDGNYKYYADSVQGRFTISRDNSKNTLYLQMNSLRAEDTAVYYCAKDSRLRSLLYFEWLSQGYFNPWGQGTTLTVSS VL: DIVMTQSPDTLAVTLGERATIQCKSSQTVTFNYKNYLAWYQQKPGQPPKLLIYWASTRESGVPDRFSGSGSGTDFTLTITSLQAEDVAVYYCQQHYRTPPSFGQGTKLDIK | = | 0.06 |
| Ab 031 (antibody, V domains shown) VH: EVQLLESGGGLVKPGQSLKLSCAASGFTFTSYAMHWVRQPPGKGLEWVAVVSYDGNYKYYADSVQGRFTISRDNSKNTLYLQMNSLRAEDTAVYYCAKDSRLRSLLYFEWLSQGYFNPWGQGTTLTVSS VL: DIQMTQSPSSLSASVGDRVTITCRSSQSITFNYKNYLAWYQQKPGKAPKLLIYWGSYLESGVPSRFSGSGSGTDFTLTISSLQPEDFATYYCQQHYRTPPSFGQGTKVEIK | < | 0.025 |
| Ab 037 (antibody, V domains shown) VH: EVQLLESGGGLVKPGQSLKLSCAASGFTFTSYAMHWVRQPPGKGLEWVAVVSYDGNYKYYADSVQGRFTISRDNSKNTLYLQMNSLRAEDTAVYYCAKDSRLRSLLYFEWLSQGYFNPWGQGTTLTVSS VL: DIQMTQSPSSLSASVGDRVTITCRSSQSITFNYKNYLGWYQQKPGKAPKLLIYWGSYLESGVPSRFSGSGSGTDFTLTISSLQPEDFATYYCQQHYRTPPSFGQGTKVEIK | = | 0.075 |
| Ab 032 (antibody, V domains shown) VH: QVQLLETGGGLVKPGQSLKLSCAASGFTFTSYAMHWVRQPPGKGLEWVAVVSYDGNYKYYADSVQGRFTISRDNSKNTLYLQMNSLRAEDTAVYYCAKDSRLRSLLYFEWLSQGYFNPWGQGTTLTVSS VL: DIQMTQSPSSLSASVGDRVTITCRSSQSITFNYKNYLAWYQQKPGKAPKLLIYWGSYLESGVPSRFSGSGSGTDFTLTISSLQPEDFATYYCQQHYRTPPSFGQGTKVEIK | = | 0.079 |
| Ab 005 (antibody, V domains shown) VH: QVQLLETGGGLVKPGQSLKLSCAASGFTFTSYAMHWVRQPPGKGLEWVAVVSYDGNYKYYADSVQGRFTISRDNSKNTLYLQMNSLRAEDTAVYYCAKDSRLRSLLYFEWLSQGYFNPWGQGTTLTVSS VL: DIVMTQSPDTVAVTVGERATINCKSSQTVTFNYKNYLAWYQQKPGQPPKLLIYWASTRESGVPDRFSGSGSGTDFTLTISSLQAEDVAVYYCQQHYRTPPSFGQGTKLDIK | = | 0.035 |
